Some compounds, each annotated with its measured melting point.

CCn1cc(C(=O)O)c(=O)c2cc(Cl)c(N3CCN(C)CC3)cc21 :: 260 °C
CC(C)(C)C(=O)Nc1ccc2cc3c(cc2c1)CCCC3 :: 202 to 204 °C
Cc1c(C#N)oc2c(c1=O)COc1ccccc1-2 :: 179 to 181 °C
Cc1ccc2[nH]cc(C3=C(c4cn(C)c5ccc(C)cc45)C(=O)N(C)C3=O)c2c1 :: 110 to 112 °C
CCC(=O)c1c(C)c(NC(=O)CC(C)(C)C)c(C)c2c1OCC2c1ccc(C(C)C)cc1 (stereo not given) :: 163 to 164 °C
CCOC(=O)CCP(Br)(c1ccccc1)(c1ccccc1)c1ccccc1 :: 150 °C

QUERY: Please give the documented melting point of `CNS(=O)(=O)c1ccccc1Nc1nc(Nc2ccc3c(c2)COCCN3C)ncc1Cl`
RESULT: 163 to 164 °C

---

Some compounds, each annotated with its measured melting point.

Consider the reported melting point for these compounds:
Cc1ccc2c3c(ccc2n1)OCC(CN1CCC(c2nc4ccccc4o2)CC1)O3 (stereo not given) :: 128 to 130 °C
Oc1c(CCc2ccccc2)cnc2c(-c3cc(-c4ccccc4)cs3)cnn12 :: 278 to 285 °C
O=c1[nH]c2scnc2c2ccccc12 :: > 200 °C
C(=C\c1cc(/C=C/c2ccc3cc[nH]c3c2)n[nH]1)/c1ccc(OCc2ccccn2)cc1 :: 211 to 214 °C
CCc1c(Oc2ccc(C(F)(F)F)cc2[N+](=O)[O-])n[nH]c1C :: 92 to 93 °C
Cc1nnc(NCCN(C)C)nc1C :: 46 to 49 °C
COC(=O)C(=CNC1CC1)C(=O)c1cc(F)c(Cl)cc1Cl :: 150 to 151 °C
N#CSc1nccnc1Cl :: 70 to 71 °C

QUERY: Please give the documented melting point of `CC(C)(N)c1ccc(-c2nc(Nc3cccc(F)c3)ncc2C#N)cc1`
RESULT: 209 °C

QUERY: Please give the documented melting point of `CCOC(=O)CCC(C=Cc1ccc(OC)c(OC)c1)=C1SC(=S)NC1=O`
RESULT: 178 to 180 °C

QUERY: Please give the documented melting point of `CCc1noc(-c2ccc(O)cc2)n1`
RESULT: 138 °C

QUERY: Please give the documented melting point of `COC(=O)c1ccc(CCCCc2c(C)cc(C)cc2C)cc1`
RESULT: 52 to 53 °C

QUERY: Please give the documented melting point of COC(=O)C1Oc2ccc(Cl)cc2C(c2ccccc2)(c2ccccc2)O1 (stereo not given)
RESULT: 172 °C

QUERY: Please give the documented melting point of O=C1CCC(N2C(=O)c3cccc(CNC(=O)Nc4cccc(Cl)c4)c3C2=O)C(=O)N1 (stereo not given)
RESULT: 193 to 195 °C

QUERY: Please give the documented melting point of `Cc1cc(C=O)c(C)c(Br)c1C`
RESULT: 108 to 110 °C

QUERY: Please give the documented melting point of O=S(=O)(c1ccc(Cl)cc1)N1CCCC1c1ccccc1F (racemic)
RESULT: 134 °C

QUERY: Please give the documented melting point of `CCOC(=O)CCCOc1ccc(C(=O)Nc2ccccc2Oc2ccccc2-c2nnn[nH]2)cc1`
RESULT: 162 to 164 °C

QUERY: Please give the documented melting point of `Cc1noc(NC(=O)N2CCN(c3nc(-c4cccc(C(F)(F)F)c4)cs3)CC2)c1C`
RESULT: 230 to 231 °C

QUERY: Please give the documented melting point of `Oc1c2c(nn1-c1ccccn1)CCCc1ccccc1-2`
RESULT: 80 to 81 °C

QUERY: Please give the documented melting point of CC(Nc1cc(Br)ccc1OCc1ccccc1)c1ccc(C(=O)O)cc1 (stereo not given)
RESULT: 186 to 187 °C

QUERY: Please give the documented melting point of `O=[N+]([O-])C=C1NCCCN1c1ccc(Cl)nc1`
RESULT: 202 °C

QUERY: Please give the documented melting point of `O=C(Nc1cccnc1)c1ccc([N+](=O)[O-])cc1`
RESULT: 191 to 194 °C

QUERY: Please give the documented melting point of `CCOc1nc(-c2ccc(F)cc2C)c2ccc(=O)n(-c3ccccc3F)c2n1`
RESULT: 137 to 139 °C

QUERY: Please give the documented melting point of `CCCCS(=O)(=O)c1ccccc1C(=O)O`
RESULT: 72.5 to 73.5 °C

QUERY: Please give the documented melting point of O=c1ccccn1[C@@H]1c2cc(C(F)(F)C(F)(F)F)ccc2OC(CF)(CF)[C@H]1O (relative stereo)
RESULT: 162 to 164 °C

QUERY: Please give the documented melting point of `COc1cc2c(cc1OCc1ccccc1)CCN(Cc1ccccn1)C2`
RESULT: 73 to 74 °C

QUERY: Please give the documented melting point of CC(C)Cc1ccc(CCc2cc3c(s2)NC(=O)C(c2ccccc2)N=C3c2ccccc2Cl)cc1 (stereo not given)
RESULT: 201 to 203 °C

QUERY: Please give the documented melting point of COc1ccccc1C1(O)OC(=O)C(c2ccc3c(c2)OCO3)=C1Cc1ccc2nsnc2c1 (stereo not given)
RESULT: 172 °C

QUERY: Please give the documented melting point of `O=C(O)c1sc2cc(OCc3cccnc3)ccc2c1Sc1ccccc1`
RESULT: 236 to 238 °C

QUERY: Please give the documented melting point of `CC(=O)Oc1c(C)sc2ccc(C(F)(F)F)cc12`
RESULT: 59 to 60 °C

---

Some compounds, each annotated with its measured melting point.

O=C(OCC1OC(n2cc(F)c(=O)[nH]c2=O)C(O)C1OC(=O)c1ccccc1)c1ccccc1 (stereo not drawn) :: 93 to 97 °C

QUERY: Please give the documented melting point of Nc1nc2c(ncn2OC(CO)CCP(=O)(O)O)c(=O)[nH]1 (stereo not drawn)
RESULT: 177 to 178 °C

QUERY: Please give the documented melting point of `O=C(Cc1ccc2ccn(C3CCN(CCc4ccc(F)cc4)CC3)c2c1)NCC1OCCO1`
RESULT: 118 to 119 °C

QUERY: Please give the documented melting point of Nc1ccc(CCOCCCCCCNCC(O)c2cc(Cl)c(N)c(Cl)c2)cc1 (stereo not drawn)
RESULT: 71 to 73 °C

QUERY: Please give the documented melting point of O=C(Cc1ccccc1)NC1C(=O)N2CC(C(=O)OCc3ccccc3)SC12 (stereo not drawn)
RESULT: 130 to 132 °C

---

ENDPOINT: melting point

Consider the reported melting point for these compounds:
Cn1ccnc1Sc1ccc(Nc2c(C#N)cnc3cc(/C=C/CO)ccc23)cc1Cl :: 220 to 240 °C
Cc1cc2c(cc1C(=O)Cc1ccccc1)CCC2 :: 126 to 127 °C

Let us move to another entry and its melting point.
QUERY: Please give the documented melting point of `CSc1nccc(-c2c[nH]c(=O)n2-c2ccc(F)cc2)n1`
RESULT: 260 to 261 °C

---

ENDPOINT: melting point

Consider the reported melting point for these molecules:
Cc1ccc2c(c1)C(CCCCN1CCN(c3cccc(Cl)c3)CC1)C(=O)N2 (stereo not drawn) :: 122 to 124 °C
COc1cccc(CC(=O)O)c1OCc1nc(OC(C)C)c(C(=O)NCc2ccc(Cl)cc2Cl)s1 :: 113 to 114 °C

Let us move to another entry and its melting point.
QUERY: Please give the documented melting point of `CC(C)(C)OC(=O)Nc1ccc(OC2CN(CC(c3ccccc3)c3ccccc3)C2)cc1`
RESULT: 149 to 151 °C

---

Some compounds, each annotated with its measured melting point.

Consider the reported melting point for these compounds:
CC(C)(CO)NC(=O)c1nn(-c2ccc(Br)cc2)c2c1C1CCC2C1 (stereo not drawn) :: 184 to 186 °C
OCc1c(Br)c(Br)c(CO)c(Br)c1Br :: 248 °C
CCOC(=O)C(=CNC1CC1)C(=O)c1c(F)cc(F)c(F)c1F :: 107 to 108 °C
O=c1[nH]c2c(I)c([N+](=O)[O-])c(Cl)c([N+](=O)[O-])c2[nH]c1=O :: 240 to 242 °C
NCC(CN)(CN)CN :: 70 °C

QUERY: Please give the documented melting point of `Cc1cc(N2CC=C(C(N)=O)CC2)c2c(C)c(C)n(-c3ccc(Cl)cc3Cl)c2n1`
RESULT: 265 to 267 °C

QUERY: Please give the documented melting point of CC(COc1c(-c2ccccc2)c(=O)oc2c(-c3ccccc3)cccc12)CN1CCOCC1 (stereo not drawn)
RESULT: 120 to 121 °C

QUERY: Please give the documented melting point of CC(=O)OC1CC2C3CCC4=CC(=O)CCC4(C)C3CCC2(C)C1N(C)C(=O)C(F)(F)F (stereo not drawn)
RESULT: 173 to 174 °C

---

ENDPOINT: melting point

Consider the reported melting point for these molecules:
Cc1ncsc1C(O)c1ccc(Cl)cc1 (stereo not given) :: 134 °C
CC(C)c1cccc(C(C)C)c1-n1nnn(C(C)C)c1=S :: 109 to 111 °C
[N-]=[N+]=NCc1ccc(C(=O)O)c(Cl)c1 :: 87 to 88 °C
CC(=O)OCCOCCN1CCC(CNC(=O)[C@@H]2CCCN2S(=O)(=O)c2ccc(Cl)c(COc3cccc4c(-n5cncn5)cc(C)nc34)c2Cl)CC1 :: 86 °C
O=Cc1nc(-c2ccccc2)c(-c2ccccc2)n1Cc1ccccc1 :: 146 to 147 °C

QUERY: Please give the documented melting point of `COc1ccc(C=C2NC(=O)NC2=O)cc1OCc1ccccc1`
RESULT: 242 to 244 °C

QUERY: Please give the documented melting point of CCC1=C(C#N)C(c2cccc(C#N)c2Cl)c2c[nH]nc2N1 (stereo not given)
RESULT: > 300 °C

QUERY: Please give the documented melting point of `Fc1c(F)c(F)c(CSc2nc3cnccc3[nH]2)c(F)c1F`
RESULT: 156 to 159 °C

QUERY: Please give the documented melting point of COc1cc(Cc2cnc(N)nc2N)cc2c1NCCC2C (stereo not given)
RESULT: 221 to 223 °C

QUERY: Please give the documented melting point of `Cc1ccccc1NC(=O)Nc1ccc(CC(=O)ON2C(=O)CCC2=O)cc1`
RESULT: 211 to 212 °C
